- subject-of-test: Human immunodeficiency virus type 1 reverse transcriptase (Human immunodeficiency virus 1)
attribute-measured: pKd
// pKd: -log10(molar conc.)

-- ask Look at this compound and give its reported pKd. Cc1cc(/C=C/C#N)cc(C)c1Oc1nc(Nc2ccc(C#N)c(F)c2)nc2c1COC2
-- reply 5.60

* * *

- assay-name: Cmax in ICR mouse at 2 mg/kg, iv measured for 12 hrs by LC-MS/MS analysis
- Assay type: ADME, organism-based
- Design: time 12 hrs, dose 2 mg/kg, route iv
- assay-conditions: in vivo
attribute-measured: Cmax

-- ask Look at this molecule and give its reported Cmax. Cc1cc(/C=C/C#N)cc(C)c1Oc1nc(Nc2ccc(C#N)c(F)c2)nc2c1COC2.Cl
-- reply 484 ng/mL

* * *

- assay-name: Tmax in ICR mouse at 2 mg/kg, iv measured for 12 hrs by LC-MS/MS analysis
- Type: ADME, organism-based
- assay-conditions: in vivo
attribute-measured: Tmax (h)
Form entry: value (h) — number only.

-- ask Look at this compound and give its reported Tmax. Cc1cc(/C=C/C#N)cc(C)c1Oc1nc(Nc2ccc(C#N)c(F)c2)nc2c1COC2.Cl
-- reply 0

* * *

- assay-name: Cytotoxicity against human MT4 cells assessed as reduction in cell viability measured after 5 days by MTT assay
- Assay type: toxicity, cell-based
- assay-conditions: time 5 day
Classes by CC50 at 120 h: class A: < 20 µM; class B: ≥ 20 µM and < 100 µM; class C: ≥ 100 µM

Consider the worked cases shown below.
>>> category_label("Cc1cc(/C=C/C#N)cc(C)c1Oc1nc(NC2CCN(c3ccc(N)cc3F)CC2)nc2sccc12")
"class A"
>>> category_label("Cc1cc(/C=C/C#N)cc(C)c1Oc1nc(NC2CCN(c3c(F)cc([N+](=O)[O-])cc3F)CC2)nc2sccc12")
"class C"
>>> category_label("Cc1cc(C#N)cc(C)c1Oc1nc(NC2CCN(c3ccc(NS(N)(=O)=O)cc3)CC2)nc2sccc12")
"class B"
>>> category_label("Cc1cc(C#N)cc(C)c1Oc1nc(NC2CCN(c3c(F)cc(NS(N)(=O)=O)cc3F)CC2)nc2ccsc12")
"class A"
>>> category_label("N#C/C=C/c1cc(F)c(Oc2nc(Nc3ccc(C#N)nc3)nc3ccsc23)c(F)c1")
"class B"
>>> category_label("Cc1cc(C#N)cc(C)c1Oc1nc(NC2CCN(c3ccc(NS(N)(=O)=O)cc3F)CC2)nc2sccc12")
"class B"

-- ask Category of N#C/C=C/c1cc(F)c(Oc2nc(Nc3ccc(C#N)nc3)nc3c2COC3)c(F)c1 , please.
-- reply class C

-- ask Category of N#C/C=C/c1cc(F)c(Oc2nc(Nc3ccc(C#N)c(F)c3)nc3sccc23)c(F)c1 , please.
-- reply class C

-- ask Category of N#C/C=C/c1cc(F)c(Oc2nc(Nc3ccc(C#N)nc3)nc3sccc23)c(F)c1 , please.
-- reply class A

-- ask Category of Cc1cc(C#N)cc(C)c1Oc1nc(NC2CCN(c3ccc([N+](=O)[O-])cc3)CC2)nc2sccc12 , please.
-- reply class C

-- ask Category of N#C/C=C/c1cc(F)c(Oc2nc(Nc3ccc(C#N)nc3)nc3cc[nH]c23)c(F)c1 , please.
-- reply class B

-- ask Category of Cc1cc(-c2ccc(C#N)cc2)cc(C)c1Oc1nc(Nc2ccc(C#N)nc2)nc2ccsc12 , please.
-- reply class C

-- ask Category of N#C/C=C/c1cc(F)c(Oc2nc(Nc3ccc(C#N)c(F)c3)nc3c2COC3)c(F)c1 , please.
-- reply class C

-- ask Category of Cc1cc(C#N)cc(C)c1Oc1nc(NC2CCN(c3ccc(NS(N)(=O)=O)cc3F)CC2)nc2ccsc12 , please.
-- reply class B

-- ask Category of Cc1cc(-c2ccc(F)cc2)cc(C)c1Oc1nc(Nc2ccc(C#N)nc2)nc2ccsc12 , please.
-- reply class A
